Target: 5HTBP construct D2 (Y53W, Q55R) (Aplysia californica, UniProt Q8WSF8, Q74R/Y72W)
Sequence (Q8WSF8 20-236 Y72W/Q74R): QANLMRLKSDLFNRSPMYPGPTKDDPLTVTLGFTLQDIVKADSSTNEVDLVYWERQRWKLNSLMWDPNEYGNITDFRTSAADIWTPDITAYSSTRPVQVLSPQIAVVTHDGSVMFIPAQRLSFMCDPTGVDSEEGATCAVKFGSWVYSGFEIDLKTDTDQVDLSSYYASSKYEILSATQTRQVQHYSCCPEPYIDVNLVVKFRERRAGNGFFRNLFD
Experiment: Competition binding with [3H]granisetron
Conditions: read-out: Granisetron Ki, [3H]granisetron binding
observed-property: Ki (nM)
Field: numeric (nM). Do not append units.

[in] Bench note: what Ki did CN1C2CCCC1CC(NC(=O)c1nn(C)c3ccccc13)C2 (stereo not shown) [[^3H]granisetron, [3H]BRL-43694] show?
[out] 454
